- MEASUREMENT_PROTOCOL: RP, Waters ACQUITY UPLC BEH C18, 100 × 1 mm, 1.7 µm, 50 °C, 0.3 mL/min, estimated dead time 0.17 min; A: water + 10 mM ammonium bicarbonate; B: 10% water + 90% methanol + 10 mM ammonium bicarbonate; gradient (min/%B) 0/0 15/100 21/100 22/0 30/0
- RECORDED_CONDITIONS: stereoisomer not certain
Label True when LC retention time < 10 min; otherwise False.

{"MOLECULE": "O=C1NS(=O)(=O)c2ccccc21", "GROUP": "True"}
{"MOLECULE": "Cc1c(NC=O)c(=O)n(-c2ccccc2)n1C [N-Formyl-4-aminoantipyrine]", "GROUP": "True"}
{"MOLECULE": "Nc1ccc(Nc2ccccc2)cc1", "GROUP": "False"}
{"MOLECULE": "C=CCOC(=O)c1ccccc1C(=O)OCC=C [Diallylphthalate]", "GROUP": "False"}

====

Reported values of LC retention time for individual entries
- MEASUREMENT_PROTOCOL: RP, Waters ACQUITY UPLC BEH C18, 100 × 1 mm, 1.7 µm, 50 °C, 0.3 mL/min, estimated dead time 0.17 min; A: water + 10 mM ammonium bicarbonate; B: 10% water + 90% methanol + 10 mM ammonium bicarbonate; gradient (min/%B) 0/0 15/100 21/100 22/0 30/0
- RECORDED_CONDITIONS: stereoisomer not certain

{"MOLECULE": "Nc1c(Br)cc(Br)cc1CNC1CCC(O)CC1 (centres undefined)", "LC retention time": "15.4 min"}
{"MOLECULE": "CN1CCC(=C2c3ccccc3CC(=O)c3sccc32)CC1", "LC retention time": "14.7 min"}
{"MOLECULE": "CCNc1nc(NC(C)C)nc(OC)n1", "LC retention time": "12.4 min"}
{"MOLECULE": "Cc1ccc(NC(=O)c2ccc(CN3CCN(C)CC3)cc2)cc1Nc1nccc(-c2cccnc2)n1", "LC retention time": "13.9 min"}
{"MOLECULE": "Cn1cc[nH]c1=S", "LC retention time": "2.82 min"}
{"MOLECULE": "CC(C)(C)c1ccc(C(=O)CCCN2CCC(OC(c3ccccc3)c3ccccc3)CC2)cc1", "LC retention time": "18.8 min"}
{"MOLECULE": "O=c1c2cc(F)ccc2nc(-n2cncn2)n1-c1ccc(Cl)cc1Cl", "LC retention time": "15 min"}
{"MOLECULE": "O=C(OCc1ccccc1)c1ccccc1", "LC retention time": "16.3 min"}
{"MOLECULE": "COC(=O)C(C)N(C(=O)Cc1ccccc1)c1c(C)cccc1C (centres undefined)", "LC retention time": "16 min"}

====

- MEASUREMENT_PROTOCOL: RP, Waters ACQUITY UPLC BEH C18, 100 × 1 mm, 1.7 µm, 50 °C, 0.3 mL/min, estimated dead time 0.17 min; A: water + 10 mM ammonium bicarbonate; B: 10% water + 90% methanol + 10 mM ammonium bicarbonate; gradient (min/%B) 0/0 15/100 21/100 22/0 30/0
- RECORDED_CONDITIONS: stereoisomer not certain

{"COMPOUND": "O=C(O)c1cccc(Oc2ccccc2)c1", "LC retention time [min]": 11.2}
{"COMPOUND": "CCC(=O)C(CC(C)N(C)C)(c1ccccc1)c1ccccc1 (stereo unspecified)", "LC retention time [min]": 18.2}
{"COMPOUND": "Oc1cc(Cl)c(Cl)c(Cl)c1", "LC retention time [min]": 14.2}
{"COMPOUND": "N#CSCSc1nc2ccccc2s1", "LC retention time [min]": 14.1}
{"COMPOUND": "CN(C)C(=O)Nc1ccc(Cl)cc1", "LC retention time [min]": 11.3}
{"COMPOUND": "CC1=CC(=O)CC(C)(C)C1", "LC retention time [min]": 11.9}
